Biological target: APP-TAP-AICD (human, UniProt P05067 18-695)
Assay: streptavidin purification of APP-TAP-AICD from brain homogenate; iTRAQ 116/114, transgenic mouse 75 vs control mouse 72; MALDI-TOF/TOF;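 note: relative protein abundance in the transgenic versus control pull-down, limited to proteins with high quality scores and above-average enrichment, without full normalization across the whole measurement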
readoutKind: iTRAQ ratio
Respond with the number and no other words.

Q. What does the record list as iTRAQ ratio for Malate dehydrogenase; cytoplasmic (enzyme, mouse, UniProt P14152 2-334, looked up) SEPIRVLVTGAAGQIAYSLLYSIGNGSVFGKDQPIILVLLDITPMMGVLDGVLMELQDCALPLLQDVIATDKEEIAFKDLDVAVLVGSMPRREGMERKDLLKANVKIFKSQGTALEKYAKKSVKVIVVGNPANTNCLTASKSAPSIPKENFSCLTRLDHNRAKSQIALKLGVTADDVKNVIIWGNHSSTQYPDVNHAKVKLQGKEVGVYEALKDDSWLKGEFITTVQQRGAAVIKARKLSSAMSAAKAIADHIRDIWFGTPEGEFVSMGVISDGNSYGVPDDLLYSFPVVIKNKTWKFVEGLPINDFSREKMDLTAKELTEEKETAFEFLSSA ?
A. 5.96
